Answer each item with its documented log10 Kd.
Target: T1, EsCas13d, nuclease-dead (Eubacterium siraeum, UniProt B0MS50, R295A;H300A;R849A;H854A)
T1 sequence: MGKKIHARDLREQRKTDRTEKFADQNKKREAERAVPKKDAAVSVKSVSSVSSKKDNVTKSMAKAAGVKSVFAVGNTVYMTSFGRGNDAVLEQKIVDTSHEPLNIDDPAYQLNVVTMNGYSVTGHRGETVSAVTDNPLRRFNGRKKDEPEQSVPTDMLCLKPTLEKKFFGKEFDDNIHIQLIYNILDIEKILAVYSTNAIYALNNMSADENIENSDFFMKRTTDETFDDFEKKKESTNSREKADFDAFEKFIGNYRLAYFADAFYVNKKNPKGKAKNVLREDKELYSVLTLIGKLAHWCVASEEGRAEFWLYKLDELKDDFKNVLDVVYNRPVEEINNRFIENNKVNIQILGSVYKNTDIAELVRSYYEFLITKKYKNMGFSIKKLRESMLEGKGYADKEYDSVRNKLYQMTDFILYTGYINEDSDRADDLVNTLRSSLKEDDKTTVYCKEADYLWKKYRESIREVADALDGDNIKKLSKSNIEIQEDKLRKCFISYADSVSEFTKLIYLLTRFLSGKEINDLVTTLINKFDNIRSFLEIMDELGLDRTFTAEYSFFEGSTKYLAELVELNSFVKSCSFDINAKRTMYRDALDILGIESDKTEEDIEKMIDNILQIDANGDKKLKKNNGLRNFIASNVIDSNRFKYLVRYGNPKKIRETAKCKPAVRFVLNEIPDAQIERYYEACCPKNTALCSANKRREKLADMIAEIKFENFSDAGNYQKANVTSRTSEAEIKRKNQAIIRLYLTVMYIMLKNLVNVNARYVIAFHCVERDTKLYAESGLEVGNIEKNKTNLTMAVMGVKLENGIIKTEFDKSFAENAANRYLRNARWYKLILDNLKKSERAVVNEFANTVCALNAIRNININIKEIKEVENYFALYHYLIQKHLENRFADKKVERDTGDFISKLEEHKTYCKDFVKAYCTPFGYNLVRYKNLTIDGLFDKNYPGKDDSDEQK
Assay: crRNA (strand 1, pre-loaded); Mg2+; 40 mM Tris-HCl pH 7.5, 150 mM NaCl, 6 mM MgCl2, 1 mM DTT, 0.1% Tween-20, 0.2 mg/ml BSA; 25 C; 10 min per concentration, then washed
Conditions: tags: His6-TwinStrep-SUMO cleaved; N-terminal SNAP kept (SNAP-Surface 488); label: 3' end held by stalled T7 RNA polymerase
Hello, just confirming the data are log10 of Kd with units of nM.

In: So what's the measured log10 Kd for this one? target 3 insU 3' of 5,insA 3' of 3 (mixed) RNA 1: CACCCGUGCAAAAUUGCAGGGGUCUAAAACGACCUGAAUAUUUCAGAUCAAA RNA 2: GGGAAUGGAUCCACAUCUACGAAUUCGUUUUUGAUCUGAAAUAUUCAUGGAUCUGCAGAUCGGAAGAGCACACGU
Out: 0.81

In: And target 2 MT 5'PFS GCC 3'PFS CGC (mixed) RNA 1: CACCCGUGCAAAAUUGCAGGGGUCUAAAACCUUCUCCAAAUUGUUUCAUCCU RNA 2: GGGAAUGGAUCCACAUCUACGAAUUCGCCAGGAUGAAACAAUUUGGAGAAGCGCAGAUCGGAAGAGCACACGU ?
Out: 1.06

In: Moving on to the next binder: target 1 MT 5'PFS GUU 3'PFS AGA (mixed) RNA 1: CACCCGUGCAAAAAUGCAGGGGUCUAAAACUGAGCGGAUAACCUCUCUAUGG RNA 2: GGGAAUGGAUCCACAUCUACGAAUUCGUUCCAUAGAGAGGUUAUCCGCUCAAGAAGAUCGGAAGAGCACACGU
Out: 1.44

In: And then target 1 MT 5'PFS GGG 3'PFS AUC (mixed) RNA 1: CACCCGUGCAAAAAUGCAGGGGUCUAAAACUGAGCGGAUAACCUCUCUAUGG RNA 2: GGGAAUGGAUCCACAUCUACGAAUUCGGGCCAUAGAGAGGUUAUCCGCUCAAUCAGAUCGGAAGAGCACACGU , what is it?
Out: 1.55

In: Would you mind doing target 1 U10G,U11A (mixed) RNA 1: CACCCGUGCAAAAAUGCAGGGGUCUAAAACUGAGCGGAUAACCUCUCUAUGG RNA 2: GGGAAUGGAUCCACAUCUACGAAUUCGUACCAUAGAGAGGAGAUCCGCUCACCGAGAUCGGAAGAGCACACGU as well?
Out: 1.11

In: // query: target 1 MT 5'PFS UAA 3'PFS CGA (mixed) RNA 1: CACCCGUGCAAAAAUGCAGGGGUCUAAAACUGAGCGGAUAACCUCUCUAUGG RNA 2: GGGAAUGGAUCCACAUCUACGAAUUCUAACCAUAGAGAGGUUAUCCGCUCACGAAGAUCGGAAGAGCACACGU
Out: 1.70

In: Next record, please: target 1 insG 3' of 14,insU 3' of 9 (mixed) RNA 1: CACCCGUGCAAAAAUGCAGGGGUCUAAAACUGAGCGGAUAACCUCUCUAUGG RNA 2: GGGAAUGGAUCCACAUCUACGAAUUCGUACCAUAGAGAGGGUUAUUCCGCUCACCGAGAUCGGAAGAGCACACGU
Out: 1.91

In: Field entry: target 2 MT 5'PFS UAU 3'PFS AAC (mixed) RNA 1: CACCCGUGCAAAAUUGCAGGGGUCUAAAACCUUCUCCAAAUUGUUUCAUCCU RNA 2: GGGAAUGGAUCCACAUCUACGAAUUCUAUAGGAUGAAACAAUUUGGAGAAGAACAGAUCGGAAGAGCACACGU
Out: 1.38

In: Then this binder: target 3 insC 3' of 7,insG 3' of 5 (mixed) RNA 1: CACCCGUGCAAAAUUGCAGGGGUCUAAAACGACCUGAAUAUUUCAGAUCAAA RNA 2: GGGAAUGGAUCCACAUCUACGAAUUCGUUUUUGAUCUGAAAUAUUCCAGGGUCUGCAGAUCGGAAGAGCACACGU
Out: 1.77

In: Queued: target 1 insU 3' of 20,insA 3' of 12 (mixed) RNA 1: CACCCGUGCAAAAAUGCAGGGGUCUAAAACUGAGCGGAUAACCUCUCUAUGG RNA 2: GGGAAUGGAUCCACAUCUACGAAUUCGUACCAUUAGAGAGGAUUAUCCGCUCACCGAGAUCGGAAGAGCACACGU
Out: 1.52

In: Next up: target 1 insG 3' of 8,insG 3' of 3 (mixed) RNA 1: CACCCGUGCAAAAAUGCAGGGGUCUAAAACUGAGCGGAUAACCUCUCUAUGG RNA 2: GGGAAUGGAUCCACAUCUACGAAUUCGUACCAUAGAGAGGUUAUGCCGCUGCACCGAGAUCGGAAGAGCACACGU
Out: 0.89

In: // next record target 1 MT 5'PFS GCU 3'PFS UAU (mixed) RNA 1: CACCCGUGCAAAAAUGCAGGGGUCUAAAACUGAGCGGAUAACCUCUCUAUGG RNA 2: GGGAAUGGAUCCACAUCUACGAAUUCGCUCCAUAGAGAGGUUAUCCGCUCAUAUAGAUCGGAAGAGCACACGU
Out: 1.86

In: Another: target 3 C1U,G14U (mixed) RNA 1: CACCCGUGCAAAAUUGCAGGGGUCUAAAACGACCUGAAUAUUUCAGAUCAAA RNA 2: GGGAAUGGAUCCACAUCUACGAAUUCGUUUUUGAUCUUAAAUAUUCAGGUUUGCAGAUCGGAAGAGCACACGU
Out: 1.86

In: Again, but for target 2 MT 5'PFS CAG 3'PFS UGC (mixed) RNA 1: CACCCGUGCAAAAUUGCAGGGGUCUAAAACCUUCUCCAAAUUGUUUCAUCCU RNA 2: GGGAAUGGAUCCACAUCUACGAAUUCCAGAGGAUGAAACAAUUUGGAGAAGUGCAGAUCGGAAGAGCACACGU
Out: 0.67
